Exercise: for every item that follows, state its recorded Tmax.
Experiment: Pharmacokinetics in ADHD model rats after gavage of JYPs
Assay type: in vivo, SHR rats (ADHD model)
Details: male, SHR, rat, plasma, 1.08 g/kg/day; ADHD model rats, oral JYPs low dose 1.080 g/kg/d (1st of 3 values)
Give bare numbers, in min.

# Compound, Units Of Measure, Tmax
data = [
    ("C[C@H]1O[C@@H](O[C@H]2CC[C@@]3(C)[C@@H](CC[C@]4(C)[C@@H]3C=C[C@]35OC[C@@]6(CCC(C)(C)C[C@H]63)[C@H](O)C[C@]54C)[C@]2(C)CO)[C@H](O)[C@@H](O[C@@H]2O[C@H](CO)[C@@H](O)[C@H](O)[C@H]2O)[C@H]1O [Saikosaponin D]", "min", 34.8),
]

Can you give me Tmax for all of these, one by one?
1. C[C@H]1O[C@@H](O[C@H]2CC[C@@]3(C)[C@@H](CC[C@]4(C)[C@@H]3C=C[C@]35OC[C@@]6(CCC(C)(C)C[C@H]63)[C@@H](O)C[C@]54C)[C@]2(C)CO)[C@H](O)[C@@H](O[C@@H]2O[C@H](CO)[C@@H](O)[C@H](O)[C@H]2O)[C@H]1O [Saikosaponin A]
2. CCC/C=C1\OC(=O)C2=C1CCC=C2 [Z-Ligustilide]

RESULT:
1. 30
2. 100

---

Test: Pharmacokinetics in control rats after gavage of JYPs
Type: in vivo, Sprague Dawley (SD) rats
Details: male, Sprague-Dawley, rat, plasma, 4.32 g/kg/day, oral JYPs high dose 4.320 g/kg/d (3rd of 3 values)
Exercise: for every item that follows, state its recorded AUC(0-t).
One number for each entry, in ng·h/mL.

These recorded examples may help you get a feel for the data.
# Molecule, Units Of Measure, Experimental Result
data = [
    ("CCCC=C1OC(=O)C2=C1CCC1C3C=C4C(=O)OC(=CCCC)C4(CC3)C21 (stereo not shown) [Levistilide A]", "ng·h/mL", 36.7),
    ("CCC/C=C1\\OC(=O)C2=C1CCC=C2 [Z-Ligustilide]", "ng·h/mL", 36.5),
    ("C[C@H]1O[C@@H](O[C@H]2CC[C@@]3(C)[C@@H](CC[C@]4(C)[C@@H]3C=C[C@]35OC[C@@]6(CCC(C)(C)C[C@H]63)[C@H](O)C[C@]54C)[C@]2(C)CO)[C@H](O)[C@@H](O[C@@H]2O[C@H](CO)[C@@H](O)[C@H](O)[C@H]2O)[C@H]1O [Saikosaponin D]", "ng·h/mL", 116),
]

Then there is this molecule:
QUERY: Given C[C@H]1O[C@@H](O[C@H]2CC[C@@]3(C)[C@@H](CC[C@]4(C)[C@@H]3C=C[C@]35OC[C@@]6(CCC(C)(C)C[C@H]63)[C@@H](O)C[C@]54C)[C@]2(C)CO)[C@H](O)[C@@H](O[C@@H]2O[C@H](CO)[C@@H](O)[C@H](O)[C@H]2O)[C@H]1O [Saikosaponin A] , respond with its AUC(0-t).
RESULT: 221

---

Assay: Pharmacokinetics in control rats after gavage of JYPs
Assay type: in vivo, Sprague Dawley (SD) rats
Settings: male, Sprague-Dawley, rat, plasma, 4.32 g/kg/day, oral JYPs high dose 4.320 g/kg/d (3rd of 3 values), read-out: MRT(0-∞)
Exercise: for every item that follows, state its recorded MRT inf.
Give bare numbers, in h.

These recorded examples may help you get a feel for the data.
# Compound, Endpoint Label, Experimental Result
records = [
    ("C[C@H]1O[C@@H](O[C@H]2CC[C@@]3(C)[C@@H](CC[C@]4(C)[C@@H]3C=C[C@]35OC[C@@]6(CCC(C)(C)C[C@H]63)[C@H](O)C[C@]54C)[C@]2(C)CO)[C@H](O)[C@@H](O[C@@H]2O[C@H](CO)[C@@H](O)[C@H](O)[C@H]2O)[C@H]1O", "MRT inf", 16.6),
    ("CCCC=C1OC(=O)C2=C1CCC1C3C=C4C(=O)OC(=CCCC)C4(CC3)C21 (stereo not shown) [Levistilide A]", "MRT inf", 31.2),
    ("CCC/C=C1\\OC(=O)C2=C1CCC=C2 [Z-Ligustilide]", "MRT inf", 21.6),
]

Then there is this compound:
QUERY: Given `C[C@H]1O[C@@H](O[C@H]2CC[C@@]3(C)[C@@H](CC[C@]4(C)[C@@H]3C=C[C@]35OC[C@@]6(CCC(C)(C)C[C@H]63)[C@@H](O)C[C@]54C)[C@]2(C)CO)[C@H](O)[C@@H](O[C@@H]2O[C@H](CO)[C@@H](O)[C@H](O)[C@H]2O)[C@H]1O` , respond with its MRT inf.
RESULT: 9.11
